Reported Conditions: in water, 327.2 K
Recorded Endpoint: solubility (mole fraction)
Just the number, please.

Prompt: Specify reported solubility (mole fraction) for the molecule shown: "CC(C)(C)NC[C@H](O)COc1nsnc1N1CCOCC1.O=C(O)/C=C\C(=O)O"
Completion: 0.0074

* * *

Reported Conditions: in n-butanol, 316.3 K
Recorded Endpoint: solubility (mole fraction)
Just the number, please.

Prompt: Specify reported solubility (mole fraction) for the compound shown: "CC(C)(C)NC[C@H](O)COc1nsnc1N1CCOCC1.O=C(O)/C=C\C(=O)O"
Completion: 0.00144

* * *

Reported Conditions: in isopropanol, 290.9 K
Recorded Endpoint: solubility (mole fraction)
Just the number, please.

Prompt: Specify reported solubility (mole fraction) for the compound shown: "CC(C)(C)NC[C@H](O)COc1nsnc1N1CCOCC1.O=C(O)/C=C\C(=O)O"
Completion: 0.00018

* * *

Reported Conditions: in dimethyl isosorbide, 309.7 K
Recorded Endpoint: solubility (mole fraction)
Just the number, please.

Prompt: Specify reported solubility (mole fraction) for the molecule shown: "CC(C)(C)NC[C@H](O)COc1nsnc1N1CCOCC1.O=C(O)/C=C\C(=O)O"
Completion: 0.00072

* * *

Reported Conditions: in water, 320.8 K
Recorded Endpoint: solubility (mole fraction)
Just the number, please.

Prompt: Specify reported solubility (mole fraction) for the compound shown: "CC(C)(C)NC[C@H](O)COc1nsnc1N1CCOCC1.O=C(O)/C=C\C(=O)O"
Completion: 0.00572

* * *

Reported Conditions: in 2-methyltetrahydrofuran, 293.2 K
Recorded Endpoint: solubility (mole fraction)
Just the number, please.

Prompt: Specify reported solubility (mole fraction) for the compound shown: "CC(C)(C)NC[C@H](O)COc1nsnc1N1CCOCC1.O=C(O)/C=C\C(=O)O"
Completion: 0.0001

* * *

Reported Conditions: in isopropanol, 321.7 K
Recorded Endpoint: solubility (mole fraction)
Just the number, please.

Prompt: Specify reported solubility (mole fraction) for the compound shown: "CC(C)(C)NC[C@H](O)COc1nsnc1N1CCOCC1.O=C(O)/C=C\C(=O)O"
Completion: 0.00097
